Test system: MCF-7 breast cancer cells
protocolDescription: Cell survival assay (SRB)
Assay type: cell-based, human
testSettings: Table 13; S enantiomer; IC50(NFF)/IC50(cancer cell line)
Reported Selectivity Index MCF-7 values are given for each entry in this list.
Reply: number alone, nothing else.

// field: Selectivity Index MCF-7; key: O=C(CCCCC[C@H](NC(=O)c1cc2ccccc2[nH]1)C(=O)Nc1cccc2cccnc12)NO ; value = 18

So, O=C(/C=C/c1ccccc1)N[C@@H](CCCCCC(=O)NO)C(=O)Nc1cccc2cccnc12 ? Its Selectivity Index MCF-7 was 71

Lab note: O=C(CCCCC[C@H](NC(=O)c1ccc(Br)cc1)C(=O)Nc1ccc(-c2ccccc2)cc1)NO gave Selectivity Index MCF-7 of 1.2

response.value for O=C(CCCCC[C@H](NC(=O)OCc1ccccc1)C(=O)Nc1cccc2cccnc12)NO (field: Selectivity Index MCF-7) = 4

Form: molecule = CC(C)COC(=O)N[C@@H](CCCCCC(=O)NO)C(=O)Nc1cccc2cccnc12 ; Selectivity Index MCF-7 = 0.6

Input CN(C)c1ccc(C(=O)N[C@@H](CCCCCC(=O)NO)C(=O)Nc2cccc3cccnc23)cc1 . Output Selectivity Index MCF-7: 16
